Recorded measurements of kon, one per entry
# Target: T1, serum purified human Complement Factor D (human, UniProt P00746 26-253)
# T1 construct: Serum purified protein flowed over the captured antibodies; also called CFD; human CFD
# T1 sequence (P00746 26-253): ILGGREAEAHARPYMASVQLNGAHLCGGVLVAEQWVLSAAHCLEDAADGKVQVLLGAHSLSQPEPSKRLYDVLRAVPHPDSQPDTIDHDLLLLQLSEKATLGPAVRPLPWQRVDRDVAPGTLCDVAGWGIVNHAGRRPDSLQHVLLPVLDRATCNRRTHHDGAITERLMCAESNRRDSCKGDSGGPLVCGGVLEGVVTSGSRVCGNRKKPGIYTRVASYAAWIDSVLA
# Method Summary: SPR Biacore, antibody on protein A chip, single cycle kinetics, 37 C;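 also: antibodies captured on the protein A surface to roughly 70 RU in HBS-EP+ buffer, with rate and affinity constants fitted using BIAevaluation software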
# value in M⁻¹ s⁻¹; strip the unit string

Report kon for 54I59D / 32W54S101V (antibody, V domains shown, Light label printed 32W545101V, read as 32W54S101V; also called 54I59D / 32W545101V) VH: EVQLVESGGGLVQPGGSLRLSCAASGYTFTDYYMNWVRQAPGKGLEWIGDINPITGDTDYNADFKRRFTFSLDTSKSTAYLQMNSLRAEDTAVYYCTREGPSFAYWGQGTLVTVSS VL: DIQLTQSPSSLSASVGDRVTITCRSSQTIVHWNGDTYLEWYQQKPGKAPNLLISKVSNRFSGVPSRFSGSGSGTDFTLTISSLQPEDFATYYCFQGSHVPVTFGQGTKVEIK please. 1.41e+07

And what about the binder 31S54I59D84S / 54R101V (antibody, V domains shown, also called 31554159D845 / 54R101V) VH: EVQLVESGGGLVQPGGSLRLSCAASGYTFTSYYMNWVRQAPGKGLEWIGDINPITGDTDYNADFKRRFTFSLDTSKSTAYLQMSSLRAEDTAVYYCTREGPSFAYWGQGTLVTVSS VL: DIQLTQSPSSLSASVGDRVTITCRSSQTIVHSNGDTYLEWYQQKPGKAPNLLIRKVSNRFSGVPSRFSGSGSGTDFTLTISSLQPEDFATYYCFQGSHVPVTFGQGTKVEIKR ? 2.84e+07

And what about the binder 54V59D / 34D50V101V (antibody, V domains shown, KCD119 TAF variant; full antibody captured on protein A) VH: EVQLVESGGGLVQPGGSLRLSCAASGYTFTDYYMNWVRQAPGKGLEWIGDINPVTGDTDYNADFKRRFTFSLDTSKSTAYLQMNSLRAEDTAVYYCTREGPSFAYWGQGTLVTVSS VL: DIQLTQSPSSLSASVGDRVTITCRSSQTIVHSNDDTYLEWYQQKPGKAPVLLIYKVSNRFSGVPSRFSGSGSGTDFTLTISSLQPEDFATYYCFQGSHVPVTFGQGTKVEIK ? 1.34e+07

And what about the binder 54I59D / 32W54S60W101V (antibody, V domains shown, Light label printed 32W54560W101V, read as 32W54S60W101V; also called 54I59D / 32W54560W101V) VH: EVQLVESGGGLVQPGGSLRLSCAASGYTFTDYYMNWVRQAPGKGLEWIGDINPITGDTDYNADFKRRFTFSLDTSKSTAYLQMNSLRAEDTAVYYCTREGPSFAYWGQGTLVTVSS VL: DIQLTQSPSSLSASVGDRVTITCRSSQTIVHWNGDTYLEWYQQKPGKAPNLLISKVSNRWSGVPSRFSGSGSGTDFTLTISSLQPEDFATYYCFQGSHVPVTFGQGTKVEIK ? 1.1e+07

Next up:
Report kon for 34I54I59D84S / 54R101V (antibody, human IgG1, V domains shown, Human IgG1 kappa; also called OG1965) VH: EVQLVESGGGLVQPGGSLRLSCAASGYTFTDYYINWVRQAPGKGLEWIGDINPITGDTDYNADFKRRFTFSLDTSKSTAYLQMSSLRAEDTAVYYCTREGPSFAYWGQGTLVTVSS VL: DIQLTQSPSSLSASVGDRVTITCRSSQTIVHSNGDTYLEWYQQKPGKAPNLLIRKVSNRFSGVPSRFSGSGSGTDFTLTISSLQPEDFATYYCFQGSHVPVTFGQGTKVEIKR please. 4e+07
